Numbers sourced from ChEMBL document CHEMBL1201862.

Test system: OVCAR-4
test.summary: NCI tumour cell line growth inhibition, 48 h
Active and inactive are the calls of the source. Cut-off read from the data, not from the text of the source: active = GI50 up to about 1.1 µM and inactive = higher.
property.label: GI50

Use these answered entries as a reference point.
CC(=O)Oc1cc(OC(C)=O)c2c(=O)c3ccccc3[nH]c2c1 : 65.9 µM (inactive)
COc1ccc(/C=C(\C#N)c2nc3ccccc3c(=O)[nH]2)cc1 : 20.3 µM (inactive)
COC(=O)C(=O)C1CCCCC(C2=NC3NN=C(N)N3C2=O)C1=O (stereo not given) : > 100 µM (inactive)
COc1ccc(NC(=O)C(=O)Cc2nc3ccc(C(=O)c4ccccc4)cc3nc2O)c([N+](=O)[O-])c1 : 43.7 µM (inactive)

Field request: GI50 | item: "C=C1CN=C(Nc2ccc(F)cc2F)S1"
> 100 µM (inactive)

Given the molecule CCOC(=O)C1C(=O)c2ccccc2CN1Cc1ccccc1 (stereo not given) , what is its reported GI50?
> 100 µM (inactive)

Could you share which GI50 value was measured for "O=c1[nH]nc(Cc2ccccc2)n1/N=C/c1c[nH]c2ccccc12" ?
42.5 µM (inactive)

Sample "COC(C[C@H]1CCCC[C@]1(O)/C(=C\CO[Si](C(C)C)(C(C)C)C(C)C)Sc1ccccc1)OC" — what was its GI50?
39.2 µM (inactive)

Look up GI50 for this molecule: COC(=O)c1c(C)cccc1C1CN=NC12Cc1cc(C)c(C)cc1C2=O (stereo not given)
52 µM (inactive)

Quick check: GI50 of "COc1cc(C)c(C)c(OC(=O)c2c(C)c(C)c(OC)c(C)c2OC)c1C" ?
10.3 µM (inactive)

====

Each entry below carries its reported GI50.
Tested on: DU-145
test.summary: NCI tumour cell line growth inhibition, 48 h
Counter-ions that a name gives are not always drawn. Calls of active or inactive are those of the source. No stated cut-off is given here; in the data, active = GI50 up to about 1.1 µM and inactive = higher.

Recorded GI50, per entry:
CC(C)(CCc1nc2ccccc2[nH]1)C(=O)O : > 100 µM (inactive)
COc1cc(/C=C2\CCc3cc(OC)c(OC)cc3C2=O)cc(OC)c1 : 9.98 µM (inactive)
COc1ccc2c(c1)CC[C@@H]1C2CC[C@]2(C)C(=O)N(C)C(=O)CC12 (stereo partly specified) : > 100 µM (inactive)
CCOC(=O)c1cc(C#N)[nH]c1-c1ccsc1 : 24.3 µM (inactive)

Tell me the measured GI50 of "Cc1cc(C(=O)CBr)c(CN2C(=O)c3ccccc3C2=O)c(=O)n1C" , please.
13.7 µM (inactive)

# lookup: GI50 of O=C1C(C(O)(C(F)(F)Cl)C(F)(F)Cl)CCC1C(O)(C(F)(F)Cl)C(F)(F)Cl (stereo unspecified)
3.81 µM (inactive)

Suppose we examine the compound "COC(=O)c1cc(O)c(O)c(O)c1-c1c(O)c(O)c(O)c(SC[C@H](NC(=O)OCc2ccccc2)C(=O)OCc2ccccc2)c1C(=O)OC" ; what GI50 value has been reported?
39.2 µM (inactive)

Give its GI50 value. Item: "CC(C)C1=Cc2ccc3c(c2C(=O)C1=O)CCCC3"
17.9 µM (inactive)

Suppose we examine the compound CN1[C@@H]2CC[C@H]1C[C@@H](OC(c1ccccc1)c1ccccc1)C2 [BENZTROPINE MESYLATE] ; what GI50 value has been reported?
26.9 µM (inactive)

Form field: reported GI50 of "CC1=C(C(=O)NNC(=O)c2ccccc2O)CC(C(=O)NNC(=O)c2ccccc2O)=C(C)N1"
0.566 µM (active)

I would be grateful if you could share the reported GI50 for "C[C@@H](O)C(=O)N1[C@@H]2CC3CC[C@]2(CS1(=O)=O)C3(C)C" .
88.1 µM (inactive)

Tell me the measured GI50 of "O=C(Nc1ccc2ncccc2c1)c1cc2c(cc1Cl)Sc1nccn1S2(=O)=O" , please.
14.3 µM (inactive)

GI50 for "C1CSCC2(COC2)CSCCSCC2(COC2)CS1" ?
> 100 µM (inactive)

Reported GI50, compound "COn1cc(C=O)c2ccccc21" : ____
> 82 µM (inactive)

Request the reported GI50 associated with "Cn1c(=S)sc2nc3ccccc3n2c1=S"
5.35 µM (inactive)

====

Entries and their GI50
Test system: LOX IMVI
test.summary: NCI tumour cell line growth inhibition, 48 h
Active and inactive are the calls of the source. No stated cut-off is given here; in the data, active = GI50 up to about 1.1 µM and inactive = higher.

O=CN1CCN(C(=O)c2cc(Cl)cc(Cl)c2)C1=S : 7.13 µM (inactive)
O=C(O)CSC(NC(=O)C(C(F)(F)F)C(F)(F)F)(C(F)(F)F)C(F)(F)F : > 100 µM (inactive)
CC1(C)CC2=C(Sc3ccccc3N2)C(=O)C1C(=O)C(=O)Nc1cc(Cl)ccc1Cl (configuration not stated) : > 100 µM (inactive)

For "CC1=C(C(=O)Nc2ccc(C)cc2)C(c2cccc([N+](=O)[O-])c2)C(C(=O)Nc2ccc(C)cc2)=C(C)N1" , what is its reported GI50?
16.2 µM (inactive)

Item under review: "O=C1Nc2ccccc2Nc2nc3cccccc-3c21" . Reported GI50?
> 100 µM (inactive)

What GI50 value was documented for this molecule, "CC(C)C1=Cc2ccc3c(c2C(=O)C1=O)CCCC3" ?
10.4 µM (inactive)

What GI50 value was documented for this molecule, Cc1c(N)nc([C@H](CC(N)=O)NC[C@H](N)C(N)=O)nc1C(=O)N[C@H](C(=O)N[C@H](C)[C@@H](O)CC(=O)N[C@H](C(=O)NC(O[C@@H]1O[C@@H](C)[C@@H](N)[C@@H](O)[C@H]1O)C(O)c1nc(-c2nc(C(=O)NCCCCN)cs2)cs1)[C@@H](C)O)[C@@H](O[C@@H]1O[C@@H](CO)[C@@H](O)[C@H](O)[C@@H]1O[C@H]1O[C@H](CO)[C@@H](O)[C@H](OC(N)=O)[C@@H]1O)c1c[nH]cn1 (some centres not stated) ?
2.89 µM (inactive)

====

Test system: NCI-H460
test.summary: NCI tumour cell line growth inhibition, 48 h
The source made the active and inactive calls. Rule as the data show it: active = GI50 up to about 1.1 µM and inactive = higher.
Use one of these outcomes when replying: True (active), False (inactive)

Some solved entries appear below for comparison.
Nc1nc(SCCc2ccccc2)nc2nc3c(c(-c4ccccc4)c12)CCCC3 : False
CCc1cc(Cc2cc(CC)c(NC(=O)C(=O)Cc3ccccn3)c(CC)c2Cl)c(Cl)c(CC)c1NC(=O)C(=O)Cc1ccccn1 : False
CON(C)c1nc(N)c(C#N)c(C#N)c1C#N : False
NNc1nncc2[nH]cnc12 : False
CN(C)CCn1c(=O)c2ccc(NCCCN(C)CCCNc3ccc4c(=O)n(CCN(C)C)c(=O)n5c6ccc(O)cc6c(=O)c3c45)c3c(=O)c4cc(O)ccc4n(c1=O)c23 : True
Cc1cc(S(=O)(=O)Nc2cc(N)n[nH]2)c(SCc2nc(N)nc(N(C)C)n2)cc1Cl : False

Tell me the assay call for CN(C(=O)[C@H](NC(=O)OCc1ccccc1)c1ccccc1)C1CCCCC1N1CCCC1 (stereo not given in full) please.
False

// param item: "CN(C)/C=N/NC(=O)/C(C#N)=C/N(C)C" ; yields the recorded call
False

Could you please tell me the result logged for "Nc1ccc(N)c2c1C(=O)c1c(N)ccc(N)c1C2=O" in this assay?
False

Which outcome did this test record for the compound COC(=O)C1=C(OC(=O)/C(=C/c2ccc(Cl)cc2Cl)c2ccc(Cl)cc2Cl)C(C(=O)OC)[C@@]2(O)[C@@H](C(=O)OC)[C@H](C)C[C@@H]1[C@@H]2C(=O)OC (stereo not given in full) ?
False

====

Test system: HCC 2998
test.summary: NCI tumour cell line growth inhibition, 48 h
Active and inactive are the calls of the source. Cut-off read from the data, not from the text of the source: active = GI50 up to about 1.1 µM and inactive = higher.
property.label: GI50

Entry "Cc1cn(C(=O)NC23CC4CC(CC(C4)C2)C3)c(=O)[nH]c1=O" has what GI50?
50.4 µM (inactive)

I'd like to know its GI50. The molecule in question is "COc1cc(/C=[N+](\[O-])c2ccccc2Cl)ccc1OC(=S)S"
37 µM (inactive)

I would be grateful if you could share the reported GI50 for COC(=O)C(Cc1ccccc1)OC(=O)C(N)CC(=O)O (stereo not given) .
> 100 µM (inactive)

Would you kindly share the measured GI50 for "Cc1ccc2ccccc2c1CC1S(=O)(=O)OCCOS1(=O)=O" ?
4.15 µM (inactive)

Returns the measured GI50 for the input molecule. Input: "CC(C)c1cc(CN(C)C)c(O)c(C(C)(C)C)c1"
16.1 µM (inactive)

Looking for the measured GI50 of "CCOC(=O)c1cc(Br)c(-c2onc(C)c2Br)[nH]1" , can you help?
53.7 µM (inactive)

Would you mind telling me what GI50 value was observed for CC1(C)CC2=C(Sc3ccccc3N2)C(=O)C1C(=O)C(=O)Nc1cc(Cl)ccc1Cl (stereo not given) ?
> 100 µM (inactive)

State the recorded GI50 for this entry: "Cn1c(=O)nc2n(-c3cc(C(F)(F)F)cc(C(F)(F)F)c3)c3ccccc3nc-2c1=O"
> 100 µM (inactive)

Give its GI50 value. Item: "COC(=O)c1cc(O)c(O)c(O)c1-c1c(O)c(O)c(O)c(SC[C@H](NC(=O)OCc2ccccc2)C(=O)OCc2ccccc2)c1C(=O)OC"
24.1 µM (inactive)

Entry under review: "CCOC(=O)c1nc2ccccc2nc1Nc1ccc(Cl)c(Cl)c1" . Reported GI50?
> 100 µM (inactive)
